The reported numbers originate from patent US11345711B2.

Biological target: Wee1 (h) (Homo sapiens, UniProt P30291)
Sequence (P30291 whole entry): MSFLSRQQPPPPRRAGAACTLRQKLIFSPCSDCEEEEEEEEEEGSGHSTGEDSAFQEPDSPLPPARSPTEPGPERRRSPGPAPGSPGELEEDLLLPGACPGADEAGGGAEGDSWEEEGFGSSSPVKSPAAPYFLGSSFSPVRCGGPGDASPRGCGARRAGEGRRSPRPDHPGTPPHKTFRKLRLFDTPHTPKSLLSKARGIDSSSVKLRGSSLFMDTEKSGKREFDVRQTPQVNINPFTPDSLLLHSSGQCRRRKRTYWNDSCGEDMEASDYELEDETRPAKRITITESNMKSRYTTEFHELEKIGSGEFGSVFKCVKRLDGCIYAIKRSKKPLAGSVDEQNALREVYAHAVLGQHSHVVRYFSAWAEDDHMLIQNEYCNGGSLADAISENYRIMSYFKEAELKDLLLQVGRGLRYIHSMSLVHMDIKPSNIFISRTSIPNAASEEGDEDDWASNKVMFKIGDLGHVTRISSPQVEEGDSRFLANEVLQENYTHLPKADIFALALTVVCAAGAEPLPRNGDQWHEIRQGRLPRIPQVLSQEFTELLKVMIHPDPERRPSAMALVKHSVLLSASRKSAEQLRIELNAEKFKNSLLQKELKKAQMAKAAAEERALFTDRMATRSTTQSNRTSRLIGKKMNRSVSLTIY
Assay: Wee1 kinase (h) detection method, [γ-33P]-ATP filter assay
Type: biochemical
Conditions: C 1 μm compound
reportedMetric: Inh. (%) of Wee1 kinase enzyme activity
Lab book: enter the figure in %, no units written.

Request: Enter reported Inh. (%) of Wee1 kinase enzyme activity observed with Wee1 (h) (Homo sapiens, UniProt P30291) for Cc1cc(Nc2ncc3c(n2)N2CCN=C2N(c2c(Cl)cccc2Cl)C3=O)cc(Cl)c1N1CCN(C)CC1 [Example 151]
Result: 97

Request: Query for Wee1 (h) (Homo sapiens, UniProt P30291): what Inh. (%) of Wee1 kinase enzyme activity does the record show for Cc1cc(Nc2ncc3c(n2)N2CCN=C2N(c2c(Cl)cccc2Cl)C3=O)cc(C)c1N1CCN(C)CC1 [Example 158] ?
Result: 95

Request: Which Inh. (%) of Wee1 kinase enzyme activity is reported with Wee1 (h) (Homo sapiens, UniProt P30291) for this entry: Cc1cc(Nc2ncc3c(n2)N2CCN=C2N(c2c(Cl)cccc2Br)C3=O)cc(Br)c1N1CCN(C)CC1 [Example 167] ?
Result: 98

---

Tested on: NCI-H1299 cells
Experiment: MTT based cell viability assay on NCI-H1299 cells
Conditions: Homo sapiens, NCI-H1299, NCI-H1299 cells, read-out: IC50, growth inhibition of NCI-H1299 cells
reportedMetric: IC50 (nM)
Numeric only. Scale: nM

Here's what some known entries look like.
>  <compound>
Cc1cc(Nc2ncc3c(n2)N2CCN=C2N(c2c(Cl)cccc2Br)C3=O)cc(Br)c1N1CCN(C)CC1 [Example 167]

>  <IC50 (nM)>
107

$$$$
>  <compound>
CN(C)C1CCN(c2ccc(Nc3ncc4c(n3)N3CCN=C3N(c3c(F)cccc3Cl)C4=O)cc2)CC1 [Example 115]

>  <IC50 (nM)>
381

$$$$
>  <compound>
CN1CCN(c2ccc(Nc3ncc4c(n3)N3CCN=C3N(c3c(F)cccc3Cl)C4=O)cc2)CC1 [Example 2]

>  <IC50 (nM)>
782

$$$$

Request: If you can, please state the reported IC50 value of Cc1cc(Nc2ncc3c(n2)N2CCN=C2N(c2c(Cl)cccc2Br)C3=O)cc(F)c1N1CCC(N(C)C)CC1 [Example 160] .
Result: 62.8

Request: Item under review: CN1CCC(N(C)c2ccc(Nc3ncc4c(n3)N3CCN=C3N(c3c(F)cccc3Cl)C4=O)cc2)CC1 [Example 113] . Reported IC50?
Result: 672

Request: What does the data say about its IC50? Entry: CN(C)C1CCN(c2ccc(Nc3ncc4c(n3)N3CCN=C3N(c3c(F)cccc3Cl)C4=O)cc2F)CC1 [Example 116]
Result: 265

---

Parameter: Inh. (%) of Wee1 kinase enzyme activity. Scope: all listed entries.
Target: UniProt P30291
Experiment: Wee1 kinase (h) detection method, [γ-33P]-ATP filter assay
Format: biochemical
Settings: C 0.1 μm compound
Hi! Could you send only the number? It should be in %, unit omitted.

# count of solved cases: 8
>  <compound>
Cc1cc(Nc2ncc3c(n2)N2CCN=C2N(c2c(F)cccc2Cl)C3=O)cc(F)c1N1CCC(N(C)C)CC1 [Example 120]

>  <reportedMetric>
Inh. (%) of Wee1 kinase enzyme activity

>  <testValue>
80

$$$$
>  <compound>
CC(C)N1[C@H](C)CN(c2ccc(Nc3ncc4c(n3)N3CCN=C3N(c3c(F)cccc3Cl)C4=O)cc2)C[C@@H]1C [Example 35]

>  <reportedMetric>
Inh. (%) of Wee1 kinase enzyme activity

>  <testValue>
82

$$$$
>  <compound>
CC(=O)N1CCN(c2ccc(Nc3ncc4c(n3)N3CCN=C3N(c3c(F)cccc3Cl)C4=O)cc2)CC1 [Example 7]

>  <reportedMetric>
Inh. (%) of Wee1 kinase enzyme activity

>  <testValue>
84

$$$$
>  <compound>
C[C@@H]1CN(c2ccc(Nc3ncc4c(n3)N3CCN=C3N(c3c(Cl)cccc3Cl)C4=O)cc2F)C[C@H](C)N1C [Example 70]

>  <reportedMetric>
Inh. (%) of Wee1 kinase enzyme activity

>  <testValue>
69

$$$$
>  <compound>
CN1CCc2ccc(Nc3ncc4c(n3)N3CCN=C3N(c3c(Cl)cccc3Cl)C4=O)cc2C1 [Example 12]

>  <reportedMetric>
Inh. (%) of Wee1 kinase enzyme activity

>  <testValue>
83

$$$$
>  <compound>
Cc1cccc(C)c1N1C(=O)c2cnc(Nc3ccc(N4C[C@@H](C)N(C)[C@@H](C)C4)cc3)nc2N2CCN=C21 [Example 84]

>  <reportedMetric>
Inh. (%) of Wee1 kinase enzyme activity

>  <testValue>
49

$$$$
>  <compound>
Cc1cc(Nc2ncc3c(n2)N2CCN=C2N(c2c(F)cccc2F)C3=O)cc(C)c1N1CCN(C)CC1 [Example 101]

>  <reportedMetric>
Inh. (%) of Wee1 kinase enzyme activity

>  <testValue>
70

$$$$
>  <compound>
CN1CCN(c2ccc(Nc3ncc4c(n3)N3CCN=C3N(c3c(Cl)cccc3Cl)C4=O)cc2F)CC1 [Example 69]

>  <reportedMetric>
Inh. (%) of Wee1 kinase enzyme activity

>  <testValue>
73

$$$$

Request: Record lookup: for UniProt P30291, what Inh. (%) of Wee1 kinase enzyme activity belongs to Cc1cc(Nc2ncc3c(n2)N2CCN=C2N(c2c(Cl)cccc2Cl)C3=O)ccc1N1CCN(C)CC1 [Example 75] ?
Result: 80

Request: Field: Inh. (%) of Wee1 kinase enzyme activity (UniProt P30291). Entry: Cc1cc(Nc2ncc3c(n2)N2CCN=C2N(c2c(F)cccc2Cl)C3=O)ccc1N1C[C@@H](C)N(C)[C@@H](C)C1 [Example 51]
Result: 86

Request: Given the entry C[C@@H]1CN(c2ccc(Nc3ncc4c(n3)N3CCN=C3N(c3c(F)cccc3Cl)C4=O)cc2)C[C@H](C)O1 [Example 32] , what Inh. (%) of Wee1 kinase enzyme activity was observed with UniProt P30291?
Result: 69

Request: Write down the reported Inh. (%) of Wee1 kinase enzyme activity of COc1cc(Nc2ncc3c(n2)N2CCN=C2N(c2c(Cl)cccc2Cl)C3=O)cc(Cl)c1N1CCC(N(C)C)CC1 [Example 144] , test system: UniProt P30291.
Result: 76

Request: Any idea what Inh. (%) of Wee1 kinase enzyme activity came out for CC(C)N1CCN(c2ccc(Nc3ncc4c(n3)N3CCN=C3N(c3c(Cl)cccc3Cl)C4=O)cc2)CC1 [Example 63] on UniProt P30291?
Result: 76

Request: API: value(readout=Inh. (%) of Wee1 kinase enzyme activity, system=UniProt P30291) for record COc1cc(Nc2ncc3c(n2)N2CCN=C2N(c2c(Cl)cccc2Cl)C3=O)cc(F)c1N1CCN(C)CC1 [Example 149]
Result: 72

Request: State its Inh. (%) of Wee1 kinase enzyme activity on UniProt P30291: C[C@@H]1CN(c2c(Cl)cc(Nc3ncc4c(n3)N3CCN=C3N(c3c(Cl)cccc3Cl)C4=O)cc2Cl)C[C@H](C)N1C [Example 136]
Result: 75
